Molecular target: human GlyT1c transporter (Homo sapiens (Human))
Test: Radioligand binding assays using recombinant CHO cell membranes expressing human GlyT1
Conditions: radioligand binding, human GlyT1c transporter-expressing CHO cell membranes
pKi: −log10 of the molar value.
quantity: pKi

Study these solved cases before continuing.
Cc1nn(C)c(C)c1S(=O)(=O)N1CC(Nc2ccc(F)c(F)c2)C(c2ccccc2)C1 (stereo not drawn) [Example 508]	≥ 5.00
Cn1cnc(S(=O)(=O)N2C[C@H](NCCCC3CC3)[C@@H](c3ccccc3)C2)c1 [Example 573]	≥ 7.00

// moving on: another record for pKi
Sample O=S(=O)(C1CCC1)N1CC(Nc2ccc(F)c(F)c2)C(c2ccccc2)C1 (stereo not drawn) [Example 509] ; pKi observed: ≥ 5.00

====

Target: human GlyT1c transporter (Homo sapiens (Human))
Experiment: Radioligand binding assays using recombinant CHO cell membranes expressing human GlyT1
Conditions: radioligand binding, human GlyT1c transporter-expressing CHO cell membranes
// reported Ki for each item listed

Study these solved cases before continuing.
Cn1cnc(S(=O)(=O)N2C[C@@H](c3ccccc3)[C@](C)(NCc3ccc(Cl)cc3)C2)c1 (relative stereo)	≤ 1000 nM
Cn1cnc(S(=O)(=O)N2C[C@H](NCC3CCOC(C)(C)C3)[C@@H](c3ccccc3)C2)c1 (stereo partly shown)	≤ 10000 nM
Cc1ccc(-c2cc(N[C@H]3CN(S(=O)(=O)c4cn(C)cn4)C[C@@H]3c3ccc(F)cc3)ncn2)cc1	≤ 10 nM
O=S(=O)(c1ccc(Cl)s1)N1CC(Nc2ccc(F)c(F)c2)C(c2ccccc2)C1 (stereo not shown)	≤ 10000 nM
Cn1cnc(S(=O)(=O)N2C[C@H](Nc3cc(-c4ccc(Cl)cc4)ncn3)[C@@H](c3ccc(F)cc3)C2)c1	≤ 10 nM
Cc1ncc(S(=O)(=O)N2C[C@H](Nc3ccc(F)c(F)c3)[C@@H](c3ccc(F)cc3)C2)n1C	≤ 10000 nM

// moving on: another record for Ki
# value of Ki, human GlyT1c transporter (Homo sapiens (Human)), item CCCCCCN[C@H]1CN(S(=O)(=O)c2cn(C)cn2)C[C@@H]1c1ccc(F)cc1 = ≤ 10 nM

====

Molecular target: human GlyT1c transporter (Homo sapiens (Human), UniProt P48067)
Sequence (P48067 whole entry): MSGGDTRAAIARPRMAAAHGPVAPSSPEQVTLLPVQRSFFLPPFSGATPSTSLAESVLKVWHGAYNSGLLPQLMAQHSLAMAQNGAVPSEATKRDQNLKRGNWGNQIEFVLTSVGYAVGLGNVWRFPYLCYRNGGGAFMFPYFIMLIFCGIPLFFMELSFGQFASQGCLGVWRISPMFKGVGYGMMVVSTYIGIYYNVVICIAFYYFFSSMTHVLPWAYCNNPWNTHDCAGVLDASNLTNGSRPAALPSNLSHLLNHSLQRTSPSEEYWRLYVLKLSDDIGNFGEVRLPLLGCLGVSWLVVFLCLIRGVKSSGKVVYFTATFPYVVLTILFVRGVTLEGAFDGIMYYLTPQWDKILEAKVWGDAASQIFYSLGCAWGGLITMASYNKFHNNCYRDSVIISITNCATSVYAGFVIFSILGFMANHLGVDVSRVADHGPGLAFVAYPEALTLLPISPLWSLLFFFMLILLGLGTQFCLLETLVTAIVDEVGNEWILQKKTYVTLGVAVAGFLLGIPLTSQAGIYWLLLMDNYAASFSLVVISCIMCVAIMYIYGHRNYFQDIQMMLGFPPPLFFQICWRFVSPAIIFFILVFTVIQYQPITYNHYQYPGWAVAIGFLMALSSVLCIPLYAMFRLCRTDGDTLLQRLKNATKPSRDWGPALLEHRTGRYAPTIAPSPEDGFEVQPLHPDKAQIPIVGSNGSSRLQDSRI
Experiment: Radioligand binding assays using recombinant CHO cell membranes expressing human GlyT1
Conditions: radioligand binding, human GlyT1c transporter-expressing CHO cell membranes
// reported Ki for each item listed

Study these solved cases before continuing.
CCCOc1cc(N[C@H]2CN(S(=O)(=O)c3cn(C)cn3)C[C@@H]2c2ccccc2)ncn1	≤ 100 nM
Cc1cc(N[C@H]2CN(S(=O)(=O)c3cn(C)cn3)C[C@@H]2c2ccc(F)cc2)ncc1F	≤ 10 nM
Cn1nccc1S(=O)(=O)N1CC(Nc2ccc(F)c(F)c2)C(c2ccccc2)C1 (stereo not shown)	≤ 10000 nM

Sample Cn1cnc(S(=O)(=O)N2C[C@H](Nc3cccc(C#N)c3)[C@@H](c3ccc(F)cc3)C2)c1 ; Ki observed: ≤ 100 nM

====

Target: human GlyT1c transporter (Homo sapiens (Human), UniProt P48067)
Assay: Radioligand binding assays using recombinant CHO cell membranes expressing human GlyT1
Settings: radioligand binding, human GlyT1c transporter-expressing CHO cell membranes
// reported Ki for each item listed

Study these solved cases before continuing.
Cn1cnc(S(=O)(=O)N2C[C@H](Nc3ccc(F)c(Cl)c3)[C@@H](c3ccc(F)cc3)C2)c1	≤ 0.01 µM
Cn1cc(S(=O)(=O)N2C[C@H](Nc3cccc(Cl)c3)[C@@H](c3ccc(F)cc3)C2)nn1	≤ 0.01 µM
Cc1cccc2ncc(CN[C@H]3CN(S(=O)(=O)c4cn(C)cn4)C[C@@H]3c3ccccc3)n12	≤ 10 µM

# value of Ki, human GlyT1c transporter (Homo sapiens (Human), UniProt P48067), item COC(=O)c1sccc1S(=O)(=O)N1CC(Nc2ccc(F)c(F)c2)C(c2ccccc2)C1 (stereo not shown) = ≤ 10 µM
